Test system: Ferredoxin NADP+ Reductase (FNR)
ASSAY OVERVIEW: FNR counter screen on linear and lactam constrained peptide microarrays
Format: binding
TEST CONDITIONS: lactam constrained library peptide; 10.0 nM protein applied to the array
EXPERIMENTAL READOUT: FNR Lactam, log 10 transformed median intensity
Numbers only.

Use the examples below as a reference point.
>>> test_value("PNYSSAP [library array peptide, tested lactam constrained and linear]")
2.56
>>> test_value("PPYPNQYQ [library array peptide, tested lactam constrained and linear]")
2.55
>>> test_value("VPSSYNLN [library array peptide, tested lactam constrained and linear]")
2.58

Moving on to another substance below.
Please report the recorded FNR Lactam, log 10 transformed median intensity for TYPGVYPS [library array peptide, tested lactam constrained and linear] .
2.59

* * *

Test system: Ferredoxin NADP+ Reductase (FNR)
ASSAY OVERVIEW: FNR counter screen on linear and lactam constrained peptide microarrays
Format: binding
TEST CONDITIONS: lactam constrained library peptide; 10.0 nM protein applied to the array
EXPERIMENTAL READOUT: FNR Lactam, log 10 transformed median intensity
Give bare numbers.

>>> test_value("PGKPNTQ [library array peptide, tested lactam constrained and linear]")
2.54

Batch lookup, FNR Lactam, log 10 transformed median intensity per entry.
1. PTSSYLN [library array peptide, tested lactam constrained and linear]
2. PPYTYANN [library array peptide, tested lactam constrained and linear]
3. TISYPLTP [library array peptide, tested lactam constrained and linear]

1. 2.53
2. 2.54
3. 2.56

* * *

Please respond with reported Streptavidin Linear, log 10 transformed median intensity for every item in the list.
TEST SYSTEM: Streptavidin (Streptomyces avidinii)
ASSAY OVERVIEW: Streptavidin-Alexa Fluor 555 alone on linear and lactam constrained peptide microarrays
Type: binding
TEST CONDITIONS: linear library peptide
Give bare numbers.

Use the examples below as a reference point.
>>> test_value("PYSNVFQG [library array peptide, tested lactam constrained and linear]")
2.54
>>> test_value("PFSGQPNS [library array peptide, tested lactam constrained and linear]")
2.56
>>> test_value("PPYTYANN [library array peptide, tested lactam constrained and linear]")
2.52

Moving on to another substance below.
Please report the recorded Streptavidin Linear, log 10 transformed median intensity for PGKPNTQ [library array peptide, tested lactam constrained and linear] .
2.53

* * *

Tested on: Rituximab
ASSAY OVERVIEW: Rituximab binding to biotinyl peptides captured on streptavidin ELISA plates
TEST CONDITIONS: streptavidin ELISA plate; Rituximab 66.0 to 0.03 nM; absorbance at 450 nm
EXPERIMENTAL READOUT: Rituximab binding to biotinyl peptide

>>> test_value("LCBiot-ACPYANPSLC amide (cyclic disulfide) [HTP116, reference compound]")
"binds"
>>> test_value("LCBiot-K(Ac)AEANPSQ amide [HTP113]")
"not"
>>> test_value("LCBiot-cyclo[KeAEANPSQ] [HTP114]")
"not"
>>> test_value("cyclo[KεAEANPSQ(LCBiot)] amide [HTP115]")
"bound"

* * *

Tested on: Ferredoxin
ASSAY OVERVIEW: Biotinylated ferredoxin counter screen on linear and lactam constrained peptide microarrays
Assay type: binding
TEST CONDITIONS: lactam constrained library peptide; 10.0 nM biotinylated protein, detected with Streptavidin-Alexa Fluor 555
Method: Diaphorase is NAD(P)H dehydrogenase (UniProtKB: P15559) encoded by the NQO1 gene. Diaphorase has utility as a model enzyme; for which peptide based synthetic affinity agents to diaphorase are required. A 3.3 million feature peptide array was used to identify potential binding partner peptides for diaphorase. […] Peptide arrays were prepared for protein binding by pretreating the arrays in PBST for 30 min at 57° C. […] Data were analyzed using a custom R script.
Please respond with reported Ferredoxin Lactam, log 10 transformed median intensity for every item in the list.
Give bare numbers.

>>> test_value("PPYPNQYQ [library array peptide, tested lactam constrained and linear]")
2.58
>>> test_value("VPSSYNLN [library array peptide, tested lactam constrained and linear]")
2.6
>>> test_value("TISYPLTP [library array peptide, tested lactam constrained and linear]")
2.84

Batch lookup, Ferredoxin Lactam, log 10 transformed median intensity per entry.
1. PPYTYANN [library array peptide, tested lactam constrained and linear]
2. TTLFQTPY [library array peptide, tested lactam constrained and linear]
3. TTFSFSTP [library array peptide, tested lactam constrained and linear]
4. IGPNPKNN [library array peptide, tested lactam constrained and linear]

2.56
2.66
2.69
2.56

Please report the recorded Ferredoxin Lactam, log 10 transformed median intensity for PGKPNTQ [library array peptide, tested lactam constrained and linear] .
2.55

* * *

Please respond with reported Diaphorase Lactam, log 10 transformed median intensity for every item in the list.
TEST SYSTEM: human diaphorase (NQO1) (Homo sapiens, UniProt P15559)
Construct: purchased SigmaAldrich
Sequence (P15559 whole entry): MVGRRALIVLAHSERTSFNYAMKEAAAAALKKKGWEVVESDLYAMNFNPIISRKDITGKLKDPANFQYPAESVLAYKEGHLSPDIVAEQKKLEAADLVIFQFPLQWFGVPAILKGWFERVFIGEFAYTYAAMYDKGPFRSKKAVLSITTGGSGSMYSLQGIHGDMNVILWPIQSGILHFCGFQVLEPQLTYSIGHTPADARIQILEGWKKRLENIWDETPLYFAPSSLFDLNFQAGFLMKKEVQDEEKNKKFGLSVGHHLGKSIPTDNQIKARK
ASSAY OVERVIEW: Alexa Fluor 555-diaphorase binding to linear and lactam constrained peptide microarrays
TEST CONDITIONS: lactam constrained library peptide; 10.0 nM protein applied to the array

>>> test_value("TTFFQPSY [library array peptide, tested lactam constrained and linear]")
4.46
>>> test_value("TYPIYGPA [library array peptide, tested lactam constrained and linear]")
4.46

Batch lookup, Diaphorase Lactam, log 10 transformed median intensity per entry.
1. PFSGQPNS [library array peptide, tested lactam constrained and linear]
2. IGPNPKNN [library array peptide, tested lactam constrained and linear]
3. PNYSSAP [library array peptide, tested lactam constrained and linear]
4. PPYPNQYQ [library array peptide, tested lactam constrained and linear]
5. PYSNVFQG [library array peptide, tested lactam constrained and linear]

1. 4.38
2. 4.34
3. 4.31
4. 4.39
5. 4.43

* * *

TEST SYSTEM: Streptavidin (Streptomyces avidinii, UniProt P22629)
Sequence (P22629 25-183, species assumed): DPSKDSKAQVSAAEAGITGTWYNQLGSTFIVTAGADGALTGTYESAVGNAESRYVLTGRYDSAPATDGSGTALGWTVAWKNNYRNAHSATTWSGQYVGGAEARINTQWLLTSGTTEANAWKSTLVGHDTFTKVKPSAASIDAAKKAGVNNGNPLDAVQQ
ASSAY OVERVIEW: Streptavidin-Alexa Fluor 555 alone on linear and lactam constrained peptide microarrays
Type: binding
TEST CONDITIONS: lactam constrained library peptide
Please respond with reported Streptavidin Lactam, log 10 transformed median intensity for every item in the list.
Answers are plain numbers.

>>> test_value("TFSSFAPV [library array peptide, tested lactam constrained and linear]")
2.53
>>> test_value("TTFSFSTP [library array peptide, tested lactam constrained and linear]")
2.55
>>> test_value("TYPIYGPA [library array peptide, tested lactam constrained and linear]")
2.54
>>> test_value("PFSGQPNS [library array peptide, tested lactam constrained and linear]")
2.57
>>> test_value("QPQSQQSQ [library array peptide, tested lactam constrained and linear]")
2.53
>>> test_value("TYPGVYPS [library array peptide, tested lactam constrained and linear]")
2.53
>>> test_value("TSFFPGYN [library array peptide, tested lactam constrained and linear]")
2.52

Please report the recorded Streptavidin Lactam, log 10 transformed median intensity for TFGFNGFP [library array peptide, tested lactam constrained and linear] .
2.53

* * *

Tested on: Ferredoxin NADP+ Reductase (FNR)
ASSAY OVERVIEW: FNR counter screen on linear and lactam constrained peptide microarrays
Assay type: binding
TEST CONDITIONS: linear library peptide; 10.0 nM protein applied to the array
EXPERIMENTAL READOUT: FNR Linear, log 10 transformed median intensity
Numbers only.

>>> test_value("TTFSFSTP [library array peptide, tested lactam constrained and linear]")
2.57
>>> test_value("TTLFQTPY [library array peptide, tested lactam constrained and linear]")
2.54

Batch lookup, FNR Linear, log 10 transformed median intensity per entry.
1. PPYPNQYQ [library array peptide, tested lactam constrained and linear]
2. PPYTYANN [library array peptide, tested lactam constrained and linear]
3. IGPNPKNN [library array peptide, tested lactam constrained and linear]
4. QPQSQQSQ [library array peptide, tested lactam constrained and linear]
5. TISYPLTP [library array peptide, tested lactam constrained and linear]

1. 2.56
2. 2.53
3. 2.57
4. 2.55
5. 2.53

Please report the recorded FNR Linear, log 10 transformed median intensity for TFGFNGFP [library array peptide, tested lactam constrained and linear] .
2.55

* * *

Please respond with reported FNR Lactam, log 10 transformed median intensity for every item in the list.
System: Ferredoxin NADP+ Reductase (FNR)
ASSAY OVERVIEW: FNR counter screen on linear and lactam constrained peptide microarrays
Assay type: binding
TEST CONDITIONS: lactam constrained library peptide; 10.0 nM protein applied to the array
Numbers only.

Batch lookup, FNR Lactam, log 10 transformed median intensity per entry.
1. TSFFPGYN [library array peptide, tested lactam constrained and linear]
2. TYPIYGPA [library array peptide, tested lactam constrained and linear]
3. PFSGQPNS [library array peptide, tested lactam constrained and linear]
4. QPQSQQSQ [library array peptide, tested lactam constrained and linear]

1: 2.62; 2: 2.59; 3: 2.58; 4: 2.55

* * *

TEST SYSTEM: human diaphorase (NQO1) (Homo sapiens)
Construct: purchased SigmaAldrich
ASSAY OVERVIEW: Alexa Fluor 555-diaphorase binding to linear and lactam constrained peptide microarrays
TEST CONDITIONS: linear library peptide; 10.0 nM protein applied to the array
Please respond with reported Diaphorase Linear, log 10 transformed median intensity for every item in the list.

Use the examples below as a reference point.
>>> test_value("TTFSFSTP [library array peptide, tested lactam constrained and linear]")
2.78
>>> test_value("QPQSQQSQ [library array peptide, tested lactam constrained and linear]")
3.42

Moving on to another sequence below.
Please report the recorded Diaphorase Linear, log 10 transformed median intensity for TYPIYGPA [library array peptide, tested lactam constrained and linear] .
2.77

Data origin, for the record: patent US20200407712A1
